Catalogue of compounds with associated TGI
# Tested on: 786-0 renal
# EXPERIMENTAL PROTOCOL: NCI tumour cell line growth inhibition, 48 h

- COMPOUND: "CCC(=O)OCOc1ccc(/C=C2\\CCC(CN(C)C)C2=O)cc1 (stereo not given)"
  EXPERIMENTAL TARGET: "786-0 renal"
  TGI: "6.2 µM"
- COMPOUND: "O=c1oc2ccccc2c(O)c1C(c1ccc(OCc2ccccc2)cc1)c1c(O)c2ccccc2oc1=O"
  EXPERIMENTAL TARGET: "786-0 renal"
  TGI: "> 100 µM"
- COMPOUND: "COc1cc2c3c(n(C)c(=O)c2cc1OC)-c1cc2c(cc1/C3=C\\CCCCl)OCO2"
  EXPERIMENTAL TARGET: "786-0 renal"
  TGI: "40 µM"
- COMPOUND: "COC(=O)C1=C(C)NC(C)=C(C(=O)OC)C1c1cccc(/[N+]([O-])=C/c2ccccc2)c1"
  EXPERIMENTAL TARGET: "786-0 renal"
  TGI: "31.5 µM"

Next:
Problem: Quick check: TGI of Cc1cc(OCc2ccc(C(F)(F)F)cc2)c2c(c1)C(=O)C=C(NCCN1CCCC1)C2=O ?
Solution: 2.99 µM
